Reference source for all entries: BindingDB's records for doi:10.1016/j.bmcl.2004.12.073

- target.system: Cyclin-A2/Cyclin-dependent kinase 2 (Homo sapiens, UniProt P24941)
- test.summary: CDK Inhibition Assay
- condition.label: pH 7.5; 22 °C
recorded.metric: pIC50
Keep it numeric: pIC50 is minus log10 of the concentration in mol/L.

Notebook: pull reported pIC50 for Cyclin-A2/Cyclin-dependent kinase 2 (Homo sapiens, UniProt P24941), entry `CC(C)c1cnn2c(Nc3ccc(S(C)(=O)=O)cc3)cc(Cl)nc12`
6.64
